Assignment: determine reported remaining activity at 1 µM for the given compounds.
Target: panel of 442 kinases (Homo sapiens, UniProt P04626)
Construct: purchased Ambit Biosciences (scanMAXX KINOMEscan)
Assay: biochemical
Format: binding
Conditions: ERBB2; 1 µM; read-out: % of control at 1 µM
Give the value in % but do not write % after it.

// fetch panel of 442 kinases (Homo sapiens, UniProt P04626) remaining activity at 1 µM for Nc1cc(C(F)(F)F)c(-c2cc(N3CCOCC3)nc(N3CCOCC3)n2)cn1 [Buparlisib]
85

// fetch panel of 442 kinases (Homo sapiens, UniProt P04626) remaining activity at 1 µM for FC(F)c1nc2ccccc2n1-c1nc(N2CCOCC2)nc(N2CCOCC2)n1 [ZSTK474]
100

// fetch panel of 442 kinases (Homo sapiens, UniProt P04626) remaining activity at 1 µM for COc1ncc(-c2ccc3nccc(-c4ccnnc4)c3c2)cc1NS(=O)(=O)c1ccc(F)cc1F [Omipalisib]
100

// fetch panel of 442 kinases (Homo sapiens, UniProt P04626) remaining activity at 1 µM for Cn1c(=O)n(-c2ccc(C(C)(C)C#N)cc2)c2c3cc(-c4cnc5ccccc5c4)ccc3ncc21 [Dactolisib]
100

----------
Molecular target: panel of 442 kinases (Homo sapiens, UniProt P11802)
Construct: purchased Ambit Biosciences (scanMAXX KINOMEscan)
Sequence (P11802 whole entry): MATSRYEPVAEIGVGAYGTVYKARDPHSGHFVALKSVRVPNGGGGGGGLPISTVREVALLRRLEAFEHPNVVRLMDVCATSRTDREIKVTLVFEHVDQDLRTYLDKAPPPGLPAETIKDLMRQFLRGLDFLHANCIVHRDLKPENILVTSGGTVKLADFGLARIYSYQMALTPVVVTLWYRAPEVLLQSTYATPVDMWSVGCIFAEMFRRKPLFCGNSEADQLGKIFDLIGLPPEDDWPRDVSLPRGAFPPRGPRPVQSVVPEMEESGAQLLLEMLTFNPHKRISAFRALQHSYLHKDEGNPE
Experiment: biochemical
Format: binding
Conditions: CDK4-cyclinD3; 1 µM; read-out: % of control at 1 µM
Assignment: determine reported remaining activity at 1 µM for the given compounds.
Lab note: write values as number then unit, every time.

Reported remaining activity at 1 µM for COc1ncc(-c2ccc3nccc(-c4ccnnc4)c3c2)cc1NS(=O)(=O)c1ccc(F)cc1F [Omipalisib] : what is it?
100%

Reported remaining activity at 1 µM for Nc1cc(C(F)(F)F)c(-c2cc(N3CCOCC3)nc(N3CCOCC3)n2)cn1 [Buparlisib] : what is it?
91%

Reported remaining activity at 1 µM for Cn1c(=O)n(-c2ccc(C(C)(C)C#N)cc2)c2c3cc(-c4cnc5ccccc5c4)ccc3ncc21 [Dactolisib] : what is it?
97%

Reported remaining activity at 1 µM for FC(F)c1nc2ccccc2n1-c1nc(N2CCOCC2)nc(N2CCOCC2)n1 [ZSTK474] : what is it?
100%

----------
Biological target: panel of 442 kinases (Homo sapiens, UniProt P07949, M918T)
Construct: purchased Ambit Biosciences (scanMAXX KINOMEscan)
Sequence (P07949 29-1114 M918T): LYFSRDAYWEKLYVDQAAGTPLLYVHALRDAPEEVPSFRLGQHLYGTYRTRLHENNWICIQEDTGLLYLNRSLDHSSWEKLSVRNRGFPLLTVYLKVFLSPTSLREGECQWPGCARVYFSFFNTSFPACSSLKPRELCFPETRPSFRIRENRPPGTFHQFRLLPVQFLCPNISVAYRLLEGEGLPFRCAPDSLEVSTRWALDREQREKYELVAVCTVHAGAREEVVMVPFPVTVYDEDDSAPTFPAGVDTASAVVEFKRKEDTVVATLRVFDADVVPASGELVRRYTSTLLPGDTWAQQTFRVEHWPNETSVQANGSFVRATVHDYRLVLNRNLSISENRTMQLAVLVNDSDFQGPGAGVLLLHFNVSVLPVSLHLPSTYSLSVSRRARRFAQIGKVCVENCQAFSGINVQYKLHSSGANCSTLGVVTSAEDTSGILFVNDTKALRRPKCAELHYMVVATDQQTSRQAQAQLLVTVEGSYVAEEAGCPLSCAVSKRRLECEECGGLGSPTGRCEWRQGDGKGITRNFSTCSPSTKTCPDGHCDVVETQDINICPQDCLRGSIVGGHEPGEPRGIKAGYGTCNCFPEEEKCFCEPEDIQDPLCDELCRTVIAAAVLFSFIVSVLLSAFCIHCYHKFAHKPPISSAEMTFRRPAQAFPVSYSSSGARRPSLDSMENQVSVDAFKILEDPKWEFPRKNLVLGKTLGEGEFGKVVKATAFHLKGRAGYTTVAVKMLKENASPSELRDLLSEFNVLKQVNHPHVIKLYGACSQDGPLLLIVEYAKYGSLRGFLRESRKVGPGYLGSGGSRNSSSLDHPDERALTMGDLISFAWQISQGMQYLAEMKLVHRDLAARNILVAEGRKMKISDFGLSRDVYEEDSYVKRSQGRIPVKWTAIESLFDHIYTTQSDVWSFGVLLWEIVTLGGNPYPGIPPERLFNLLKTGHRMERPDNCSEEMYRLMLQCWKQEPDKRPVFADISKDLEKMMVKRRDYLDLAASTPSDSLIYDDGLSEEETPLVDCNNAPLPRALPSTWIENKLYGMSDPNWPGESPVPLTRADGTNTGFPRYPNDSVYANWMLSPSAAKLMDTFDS
Experiment: biochemical
Format: binding
Conditions: kinase RET(M918T); 1 µM; read-out: RET(M918T) (% of control at 1 µM)
Property: remaining activity at 1 µM (%)
Give the value in % but do not write % after it.

Reported remaining activity at 1 µM for COc1ncc(-c2ccc3nccc(-c4ccnnc4)c3c2)cc1NS(=O)(=O)c1ccc(F)cc1F : what is it?
100

Reported remaining activity at 1 µM for Nc1cc(C(F)(F)F)c(-c2cc(N3CCOCC3)nc(N3CCOCC3)n2)cn1 : what is it?
100

Reported remaining activity at 1 µM for FC(F)c1nc2ccccc2n1-c1nc(N2CCOCC2)nc(N2CCOCC2)n1 : what is it?
89

Reported remaining activity at 1 µM for Cn1c(=O)n(-c2ccc(C(C)(C)C#N)cc2)c2c3cc(-c4cnc5ccccc5c4)ccc3ncc21 : what is it?
100

----------
Molecular target: panel of 442 kinases (Homo sapiens, UniProt Q9UKI8)
Construct: purchased Ambit Biosciences (scanMAXX KINOMEscan)
Sequence (Q9UKI8 whole entry): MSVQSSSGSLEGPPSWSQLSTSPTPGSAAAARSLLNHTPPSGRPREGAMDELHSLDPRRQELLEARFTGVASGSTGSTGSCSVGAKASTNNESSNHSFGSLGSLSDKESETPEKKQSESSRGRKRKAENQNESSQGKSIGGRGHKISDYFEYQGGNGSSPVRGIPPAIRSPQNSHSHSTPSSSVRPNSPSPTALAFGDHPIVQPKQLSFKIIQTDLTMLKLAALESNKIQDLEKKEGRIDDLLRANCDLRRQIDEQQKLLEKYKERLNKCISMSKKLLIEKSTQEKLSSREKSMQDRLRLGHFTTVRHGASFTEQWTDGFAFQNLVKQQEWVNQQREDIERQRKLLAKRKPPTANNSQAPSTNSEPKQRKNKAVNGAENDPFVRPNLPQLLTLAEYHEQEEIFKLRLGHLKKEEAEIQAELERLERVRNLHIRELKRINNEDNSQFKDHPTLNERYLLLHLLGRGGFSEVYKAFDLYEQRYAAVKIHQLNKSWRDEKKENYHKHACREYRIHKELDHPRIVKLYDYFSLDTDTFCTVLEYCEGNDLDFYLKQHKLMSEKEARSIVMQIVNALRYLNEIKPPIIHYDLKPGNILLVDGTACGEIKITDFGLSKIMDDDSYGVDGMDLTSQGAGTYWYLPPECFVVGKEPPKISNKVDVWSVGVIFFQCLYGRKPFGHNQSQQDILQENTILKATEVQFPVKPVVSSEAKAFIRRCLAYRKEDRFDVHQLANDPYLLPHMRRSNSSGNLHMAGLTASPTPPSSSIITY
Assay: biochemical
Format: binding
Details: kinase TLK1; 1 µM; read-out: TLK1 (% of control at 1 µM)
Assignment: determine reported remaining activity at 1 µM for the given compounds.
Give the value in % but do not write % after it.

// fetch panel of 442 kinases (Homo sapiens, UniProt Q9UKI8) remaining activity at 1 µM for FC(F)c1nc2ccccc2n1-c1nc(N2CCOCC2)nc(N2CCOCC2)n1
100

// fetch panel of 442 kinases (Homo sapiens, UniProt Q9UKI8) remaining activity at 1 µM for COc1ncc(-c2ccc3nccc(-c4ccnnc4)c3c2)cc1NS(=O)(=O)c1ccc(F)cc1F
95

// fetch panel of 442 kinases (Homo sapiens, UniProt Q9UKI8) remaining activity at 1 µM for Nc1cc(C(F)(F)F)c(-c2cc(N3CCOCC3)nc(N3CCOCC3)n2)cn1
100

// fetch panel of 442 kinases (Homo sapiens, UniProt Q9UKI8) remaining activity at 1 µM for Cn1c(=O)n(-c2ccc(C(C)(C)C#N)cc2)c2c3cc(-c4cnc5ccccc5c4)ccc3ncc21
75

----------
Target: panel of 442 kinases (Homo sapiens, UniProt Q8IWQ3)
Construct: purchased Ambit Biosciences (scanMAXX KINOMEscan)
Sequence (Q8IWQ3 whole entry): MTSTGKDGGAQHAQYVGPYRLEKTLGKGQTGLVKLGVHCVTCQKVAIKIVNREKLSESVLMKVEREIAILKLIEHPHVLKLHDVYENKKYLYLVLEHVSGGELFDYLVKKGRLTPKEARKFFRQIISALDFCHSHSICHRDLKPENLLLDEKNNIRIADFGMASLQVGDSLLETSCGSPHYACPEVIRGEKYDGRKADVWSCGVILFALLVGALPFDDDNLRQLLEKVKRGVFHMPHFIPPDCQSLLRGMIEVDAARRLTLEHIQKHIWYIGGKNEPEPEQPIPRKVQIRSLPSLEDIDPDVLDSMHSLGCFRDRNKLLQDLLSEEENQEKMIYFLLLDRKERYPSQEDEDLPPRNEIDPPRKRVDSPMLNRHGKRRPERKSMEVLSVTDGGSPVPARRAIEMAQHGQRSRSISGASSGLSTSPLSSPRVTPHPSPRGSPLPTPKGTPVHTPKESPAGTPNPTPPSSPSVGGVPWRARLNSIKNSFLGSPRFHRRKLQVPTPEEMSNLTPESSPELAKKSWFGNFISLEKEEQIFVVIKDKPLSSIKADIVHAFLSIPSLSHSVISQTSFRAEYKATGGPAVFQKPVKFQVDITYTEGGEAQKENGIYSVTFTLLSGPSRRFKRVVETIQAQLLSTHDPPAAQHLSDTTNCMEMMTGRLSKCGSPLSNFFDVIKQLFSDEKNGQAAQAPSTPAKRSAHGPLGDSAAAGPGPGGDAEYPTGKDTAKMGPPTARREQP
Test: biochemical
Assay type: binding
Conditions: BRSK2; 1 µM; read-out: % of control at 1 µM
Property: remaining activity at 1 µM (%)
Give the value in % but do not write % after it.

Reported remaining activity at 1 µM for Nc1cc(C(F)(F)F)c(-c2cc(N3CCOCC3)nc(N3CCOCC3)n2)cn1 : what is it?
100

Reported remaining activity at 1 µM for COc1ncc(-c2ccc3nccc(-c4ccnnc4)c3c2)cc1NS(=O)(=O)c1ccc(F)cc1F : what is it?
95

Reported remaining activity at 1 µM for FC(F)c1nc2ccccc2n1-c1nc(N2CCOCC2)nc(N2CCOCC2)n1 : what is it?
100

Reported remaining activity at 1 µM for Cn1c(=O)n(-c2ccc(C(C)(C)C#N)cc2)c2c3cc(-c4cnc5ccccc5c4)ccc3ncc21 : what is it?
91

----------
Assignment: determine reported remaining activity at 1 µM for the given compounds.
Target: panel of 442 kinases (Homo sapiens)
Construct: purchased Ambit Biosciences (scanMAXX KINOMEscan)
Assay: biochemical
Format: binding
Details: kinase MTOR; 1 µM; read-out: % of control at 1 µM
Give the value in % but do not write % after it.

// fetch panel of 442 kinases (Homo sapiens) remaining activity at 1 µM for FC(F)c1nc2ccccc2n1-c1nc(N2CCOCC2)nc(N2CCOCC2)n1 [ZSTK474]
0.75

// fetch panel of 442 kinases (Homo sapiens) remaining activity at 1 µM for Nc1cc(C(F)(F)F)c(-c2cc(N3CCOCC3)nc(N3CCOCC3)n2)cn1 [Buparlisib]
20

// fetch panel of 442 kinases (Homo sapiens) remaining activity at 1 µM for Cn1c(=O)n(-c2ccc(C(C)(C)C#N)cc2)c2c3cc(-c4cnc5ccccc5c4)ccc3ncc21 [Dactolisib]
0

// fetch panel of 442 kinases (Homo sapiens) remaining activity at 1 µM for COc1ncc(-c2ccc3nccc(-c4ccnnc4)c3c2)cc1NS(=O)(=O)c1ccc(F)cc1F [Omipalisib]
0

----------
Target: panel of 442 kinases (Homo sapiens, UniProt P53355)
Construct: purchased Ambit Biosciences (scanMAXX KINOMEscan)
Sequence (P53355 whole entry): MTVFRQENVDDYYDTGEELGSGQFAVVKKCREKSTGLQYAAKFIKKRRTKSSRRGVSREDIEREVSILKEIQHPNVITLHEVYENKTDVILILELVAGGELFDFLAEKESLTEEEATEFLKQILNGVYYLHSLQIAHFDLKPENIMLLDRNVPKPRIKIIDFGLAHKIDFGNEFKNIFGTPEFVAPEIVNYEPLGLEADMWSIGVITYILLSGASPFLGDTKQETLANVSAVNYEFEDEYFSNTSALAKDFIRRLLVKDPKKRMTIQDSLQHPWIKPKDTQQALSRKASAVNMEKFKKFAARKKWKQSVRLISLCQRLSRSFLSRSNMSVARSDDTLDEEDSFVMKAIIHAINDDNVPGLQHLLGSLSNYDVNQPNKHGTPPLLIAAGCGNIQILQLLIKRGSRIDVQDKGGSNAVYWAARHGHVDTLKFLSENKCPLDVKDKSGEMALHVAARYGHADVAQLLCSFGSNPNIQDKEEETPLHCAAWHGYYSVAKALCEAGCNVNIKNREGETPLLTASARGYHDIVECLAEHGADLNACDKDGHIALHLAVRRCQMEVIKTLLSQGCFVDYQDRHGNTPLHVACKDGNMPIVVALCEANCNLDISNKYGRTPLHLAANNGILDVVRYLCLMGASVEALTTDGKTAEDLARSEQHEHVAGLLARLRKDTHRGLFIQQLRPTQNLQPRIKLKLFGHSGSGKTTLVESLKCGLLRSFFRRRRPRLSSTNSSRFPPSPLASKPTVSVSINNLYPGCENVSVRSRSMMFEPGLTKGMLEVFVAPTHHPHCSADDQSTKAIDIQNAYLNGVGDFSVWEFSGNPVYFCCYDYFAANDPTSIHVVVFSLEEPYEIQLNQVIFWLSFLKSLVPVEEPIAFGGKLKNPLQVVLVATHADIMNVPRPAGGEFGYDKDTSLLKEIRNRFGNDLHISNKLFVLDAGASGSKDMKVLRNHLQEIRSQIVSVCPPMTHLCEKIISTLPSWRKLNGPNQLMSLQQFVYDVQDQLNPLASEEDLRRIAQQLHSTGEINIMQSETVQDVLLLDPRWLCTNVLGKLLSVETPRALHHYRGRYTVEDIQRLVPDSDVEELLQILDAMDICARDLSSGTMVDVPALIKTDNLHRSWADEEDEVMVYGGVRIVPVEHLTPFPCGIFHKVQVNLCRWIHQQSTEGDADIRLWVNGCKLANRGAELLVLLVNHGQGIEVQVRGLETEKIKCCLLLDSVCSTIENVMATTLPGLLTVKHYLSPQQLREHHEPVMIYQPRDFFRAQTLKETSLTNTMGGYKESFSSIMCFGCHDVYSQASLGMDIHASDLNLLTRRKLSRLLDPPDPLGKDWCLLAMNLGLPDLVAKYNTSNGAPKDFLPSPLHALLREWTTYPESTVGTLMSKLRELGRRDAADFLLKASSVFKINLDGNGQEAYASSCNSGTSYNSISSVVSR
Assay: biochemical
Assay type: binding
Conditions: DAPK1; 1 µM; read-out: % of control at 1 µM
Property: remaining activity at 1 µM (%)
Give the value in % but do not write % after it.

Reported remaining activity at 1 µM for COc1ncc(-c2ccc3nccc(-c4ccnnc4)c3c2)cc1NS(=O)(=O)c1ccc(F)cc1F [Omipalisib] : what is it?
93

Reported remaining activity at 1 µM for Nc1cc(C(F)(F)F)c(-c2cc(N3CCOCC3)nc(N3CCOCC3)n2)cn1 [Buparlisib] : what is it?
93

Reported remaining activity at 1 µM for FC(F)c1nc2ccccc2n1-c1nc(N2CCOCC2)nc(N2CCOCC2)n1 [ZSTK474] : what is it?
86

Reported remaining activity at 1 µM for Cn1c(=O)n(-c2ccc(C(C)(C)C#N)cc2)c2c3cc(-c4cnc5ccccc5c4)ccc3ncc21 [Dactolisib] : what is it?
76

----------
Biological target: panel of 442 kinases (Homo sapiens)
Construct: purchased Ambit Biosciences (scanMAXX KINOMEscan)
Test: biochemical
Type: binding
Conditions: kinase PLK3; 1 µM; read-out: PLK3 (% of control at 1 µM)
Assignment: determine reported remaining activity at 1 µM for the given compounds.
Lab note: write values as number then unit, every time.

// fetch panel of 442 kinases (Homo sapiens) remaining activity at 1 µM for COc1ncc(-c2ccc3nccc(-c4ccnnc4)c3c2)cc1NS(=O)(=O)c1ccc(F)cc1F [Omipalisib]
82%

// fetch panel of 442 kinases (Homo sapiens) remaining activity at 1 µM for Cn1c(=O)n(-c2ccc(C(C)(C)C#N)cc2)c2c3cc(-c4cnc5ccccc5c4)ccc3ncc21 [Dactolisib]
88%

// fetch panel of 442 kinases (Homo sapiens) remaining activity at 1 µM for Nc1cc(C(F)(F)F)c(-c2cc(N3CCOCC3)nc(N3CCOCC3)n2)cn1 [Buparlisib]
97%

// fetch panel of 442 kinases (Homo sapiens) remaining activity at 1 µM for FC(F)c1nc2ccccc2n1-c1nc(N2CCOCC2)nc(N2CCOCC2)n1 [ZSTK474]
83%

----------
Target: panel of 442 kinases (Homo sapiens)
Construct: purchased Ambit Biosciences (scanMAXX KINOMEscan)
Test: biochemical
Format: binding
Details: kinase TNK2; 1 µM; read-out: TNK2 (% of control at 1 µM)
Property: remaining activity at 1 µM (%)
Give the value in % but do not write % after it.

Reported remaining activity at 1 µM for Nc1cc(C(F)(F)F)c(-c2cc(N3CCOCC3)nc(N3CCOCC3)n2)cn1 : what is it?
100

Reported remaining activity at 1 µM for Cn1c(=O)n(-c2ccc(C(C)(C)C#N)cc2)c2c3cc(-c4cnc5ccccc5c4)ccc3ncc21 : what is it?
98

Reported remaining activity at 1 µM for FC(F)c1nc2ccccc2n1-c1nc(N2CCOCC2)nc(N2CCOCC2)n1 : what is it?
100

Reported remaining activity at 1 µM for COc1ncc(-c2ccc3nccc(-c4ccnnc4)c3c2)cc1NS(=O)(=O)c1ccc(F)cc1F : what is it?
100
